target: acetylcholine receptor (Homo sapiens); test: SPR binding affinity (RU) of optimized 5mer/6mer/7mer peptides, Examples 6-7; details: SPR, peptides tested at 10 μM; 6mer-1 Bottom sequence (Table 11)
I'd appreciate it if you could supply Binding affinity values for the items below.
# value in Ru; strip the unit string

Provide one value: measured Binding affinity of 6mer-1-853 (KRCNGR)
30

Supply reported Binding affinity belonging to this substance: 6mer-1-825 (RKEKWK)
30

Provide Binding affinity value for the following substance: 6mer-1-838 (KRNTWK)
17

Provide Binding affinity value for the following substance: 6mer-1-972 (RRHTHK)
43

# return recorded Binding affinity for input 6mer-1-974 (RKPAHK)
27

For the substance 6mer-1-816 (RKIDFK) , give its measured Binding affinity value.
14

Tell me its Binding affinity given 6mer-1-874 (KRANHK) as the entry.
18

Recall and state the measured Binding affinity for 6mer-1-864 (RRTWGR) .
32

Recall and state the measured Binding affinity for 6mer-1-865 (KKMTAR) .
21

Note down Binding affinity recorded for 6mer-1-897 (RRPSIK)
24

Provide Binding affinity value for the following substance: 6mer-1-986 (KKAEEK)
22

Report Binding affinity, nothing else, for this substance: 6mer-1-979 (RRYWEK)
42

Give reported Binding affinity value for 6mer-1-831 (KKNPWK)
15

Return reported Binding affinity. Input substance: 6mer-1-882 (KKPAMR)
25

For the substance 6mer-1-858 (KKKHKR) , give its reported Binding affinity.
27

Fill in reported Binding affinity for this entry: 6mer-1-906 (KKINGK)
30

====

molecular target: acetylcholine receptor (Homo sapiens); assay: SPR binding affinity (RU) of optimized 5mer/6mer/7mer peptides, Examples 6-7; conditions: SPR, Resonance Units; peptides tested at 10 μM; 6mer-2 Top sequence
EXPERIMENTAL ENDPOINT: Binding affinity (Ru)
Hi! Could you send only the number? It should be in Ru, unit omitted.

Please give measured Binding affinity of the following entry: 6mer-2-413 (RLILKR)
136

Answer with the recorded Binding affinity of 6mer-2-469 (RLRTKK) only.
153

Tell us which Binding affinity value is on record for 6mer-2-589 (RWQQRK)
153

Report Binding affinity for 6mer-2-547 (RWQCKR)
135

Recall and state the measured Binding affinity for 6mer-2-505 (KRQCKK) .
148

Dear colleague, please send me the reported Binding affinity for 6mer-2-561 (RRVLKK) when you can.
142

Complete the entry with Binding affinity for 6mer-2-580 (KWQQRR)
121

Give reported Binding affinity value for 6mer-2-507 (RGICKR)
145

Report measured Binding affinity; entry is 6mer-2-569 (RWQLRK)
135

Respond only with Binding affinity recorded for 6mer-2-437 (KQVCKK)
121

Give recorded Binding affinity. 6mer-2-521 (KQYTRK)
144

Give a short answer stating reported Binding affinity for 6mer-2-485 (RQIQKR) .
148

Given the substance 6mer-2-526 (RVLLRK) , write its reported Binding affinity.
144

Please supply the value of reported Binding affinity for the item 6mer-2-422 (RLITRR)
154

====

target: acetylcholine receptor (Homo sapiens, UniProt P02708); test: SPR binding affinity (RU) of optimized 5mer/6mer/7mer peptides, Examples 6-7; conditions: SPR, Resonance Units; peptides tested at 10 μM; 6mer-2 Bottom sequence
Sequence (P02708 21-457): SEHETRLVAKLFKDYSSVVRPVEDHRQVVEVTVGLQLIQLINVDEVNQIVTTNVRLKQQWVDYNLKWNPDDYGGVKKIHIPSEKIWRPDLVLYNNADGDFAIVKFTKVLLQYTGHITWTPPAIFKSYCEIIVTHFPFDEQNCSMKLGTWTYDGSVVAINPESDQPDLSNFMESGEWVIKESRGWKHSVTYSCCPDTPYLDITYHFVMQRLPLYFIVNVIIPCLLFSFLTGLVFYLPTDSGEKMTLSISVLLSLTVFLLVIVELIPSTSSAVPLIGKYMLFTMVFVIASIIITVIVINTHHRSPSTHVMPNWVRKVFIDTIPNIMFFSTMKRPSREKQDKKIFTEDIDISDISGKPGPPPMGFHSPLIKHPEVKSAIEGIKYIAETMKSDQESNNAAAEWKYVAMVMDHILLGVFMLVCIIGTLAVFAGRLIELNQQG
EXPERIMENTAL ENDPOINT: Binding affinity (Ru)
Numeric answer only, unit Ru assumed.

Tell me measured Binding affinity for 6mer-2-962 (KKSNRK) please.
30

Kindly indicate its recorded Binding affinity. Item: 6mer-2-815 (KICGRK)
30

Answer with the recorded Binding affinity of 6mer-2-788 (KKEKKK) only.
30

Please give measured Binding affinity of the following entry: 6mer-2-913 (KFKNRR)
25

Item 6mer-2-947 (KTNWRK) : provide Binding affinity
41

Given 6mer-2-972 (KAMFRR) , respond with its Binding affinity.
38

Check the records and state Binding affinity for 6mer-2-854 (RCNWKR)
23

Output Binding affinity of 6mer-2-782 (KPWPKR)
18

Give a short answer stating reported Binding affinity for 6mer-2-922 (KDNVRR) .
41

Output Binding affinity of 6mer-2-787 (RIWHKK)
19

Tell me its Binding affinity given 6mer-2-645 (RIKVKK) as the entry.
15

Return value of Binding affinity for input 6mer-2-858 (KEEHRR) , no commentary.
30

Using the record for 6mer-2-956 (KFCWRR) , state its measured Binding affinity.
28

For the substance 6mer-2-634 (RYEHRK) , give its reported Binding affinity.
33

Read the entry 6mer-2-952 (KYWGRR) and write its reported Binding affinity.
24

Identify measured Binding affinity corresponding to 6mer-2-975 (KKTMKK)
38

Return Binding affinity for the following substance: 6mer-2-981 (RCEIRK)
32

Return reported Binding affinity. Input substance: 6mer-2-635 (KECVRR)
11

Write down Binding affinity measured for item 6mer-2-689 (RDKERR)
24

Give reported Binding affinity value for 6mer-2-831 (RMTWRK)
29

Please report Binding affinity for the following substance: 6mer-2-836 (KNTMKR)
26

For the substance 6mer-2-707 (RTWKRK) , report Binding affinity.
21

Quick one: give measured Binding affinity for 6mer-2-946 (KPCEKK)
21

Recall and state the measured Binding affinity for 6mer-2-821 (RPTMKR) .
33

For 6mer-2-870 (KMTEKK) , write its Binding affinity.
21

Give a short answer stating reported Binding affinity for 6mer-2-937 (RASHRR) .
35

Look up and report measured Binding affinity for this entry: 6mer-2-610 (RKNPKR)
32

Provide Binding affinity value for the following substance: 6mer-2-834 (RFWWKR)
28

Recall and state the measured Binding affinity for 6mer-2-638 (RCWAKR) .
30

Give the reported Binding affinity for this substance. 6mer-2-976 (RTTGKK)
26

Provide only the value of recorded Binding affinity for 6mer-2-867 (KYWEKK)
32

Supply recorded Binding affinity for 6mer-2-739 (RIHAKK) here.
17

Give recorded Binding affinity. 6mer-2-691 (RHKMRK)
15

Read off the recorded Binding affinity for 6mer-2-885 (KCMVRR)
17

Supply Binding affinity value. Item: 6mer-2-696 (KFTKKK)
20

Input 6mer-2-729 (RCPDKR) , output reported Binding affinity.
30

Give the reported value of Binding affinity for this record: 6mer-2-982 (RMHAKK)
38

Check the records and state Binding affinity for 6mer-2-639 (KHTVKK)
23

Fill in Binding affinity for record 6mer-2-646 (RAAPRR)
32

Indicate the recorded Binding affinity value for this substance: 6mer-2-920 (RMTIKK)
26

Write down Binding affinity measured for item 6mer-2-765 (KHSPRK)
23

Look up Binding affinity of 6mer-2-876 (KEDNKR) and report it.
17

Item 6mer-2-950 (KYNKRR) : provide Binding affinity
26

Quote Binding affinity reported for 6mer-2-619 (RPPDRR) please.
26

Give the reported Binding affinity for this substance. 6mer-2-772 (RHPAKK)
15

Tell me measured Binding affinity for 6mer-2-659 (KIPNKR) please.
22

Report Binding affinity, nothing else, for this substance: 6mer-2-684 (RYTMKK)
14

Specify Binding affinity for 6mer-2-658 (RYWVKK) and stop.
23

Output Binding affinity of 6mer-2-644 (REPNRR)
12

Give the measured Binding affinity for 6mer-2-921 (RPKAKK)
22

Where do these numbers come from? They come from patent US20250011363A1.
